- Tested on: 435261-313-R-J1-PDC tumor spheroid viability
- ASSAY NOTES: Anticancer human tumor 435261-313-R-J1-PDC patient-derived colon adenocarcinoma cell line growth inhibition [PI3K]
- ASSAY CONDITIONS: second compound 0.1 µM; first compound 0.316 µM; hits give low values; spheroids with HUVEC and MSC
Sorting guide: entries reporting viability, T/C beneath 50% go in the Yes pile, the rest go in the No pile.

See these solved cases before continuing.
compound="CC(Cn1ccc(-c2ccc(C#N)c(Cl)c2)n1)NC(=O)c1cc(C(C)O)[nH]n1 (stereo not given) + Cc1nc(NC(=O)N2CCCC2C(N)=O)sc1-c1ccnc(C(C)(C)C(F)(F)F)c1" label=No
compound="C=CC(=O)N1CCN(c2nc(=O)n(-c3c(C)ccnc3C(C)C)c3nc(-c4c(O)cccc4F)c(F)cc23)C(C)C1 (stereo not given) + CC(Nc1ccc2c(c1)OCCn1cc(N3C(=O)OCC3C(F)F)nc1-2)C(N)=O" label=Yes
compound="C[C@@H](NC(=O)c1ncnc(N)c1Cl)c1ncc(C(=O)Nc2cc(C(F)(F)F)c(Cl)cn2)s1 + COc1c(OCCCN2CCOCC2)ccc2c3n(c(=NC(=O)c4cnc(N)nc4)nc12)CCN3" label=Yes
compound="CNC(=O)c1ccc(N2C(=S)N(c3ccc(C#N)c(C(F)(F)F)c3)C(=O)C2(C)C)cc1F + CC(Nc1ncnc2nc[nH]c12)c1cc2cccc(Cl)c2c(=O)n1-c1ccccc1" label=No

Turning to the following compound.
Is the reported viability, T/C for CC1(C)CCC(Nc2ncc(C(F)(F)F)c(-c3c[nH]c4c(P(C)(C)=O)c(C#N)ccc34)n2)CN1 (stereo not given) + CC(Nc1ncnc2nc[nH]c12)c1cc2cccc(Cl)c2c(=O)n1-c1ccccc1 strictly below 50%?
No

----------
- System: 435261-313-R-J1-PDC tumor spheroid viability
- ASSAY NOTES: Anticancer human tumor 435261-313-R-J1-PDC cell line growth inhibition [PI3K];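 note: spheroids exposed to compounds for 7 days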
- ASSAY CONDITIONS: second compound 0.1 µM; first compound 3.16 µM; hits give low values; spheroids with HUVEC and MSC
- From the text: Combinatorial screen of targeted agents with the PI3K inhibitors inavolisib, alpelisib, duvelisib, and copanlisib in multi-cell type tumor spheroids A high-throughput screen of multi-cell type tumor spheroids was designed to identify active combinations of targeted small molecules and PI3K pathway inhibitors. […] Compounds. […] If the clinical Cmax for an agent had not been determined, the highest concentration tested was 10 microM. […]
REPORTED ENDPOINT: viability, T/C (%)
Numbers only, in %.

compound="CC1(C)CCC(Nc2ncc(C(F)(F)F)c(-c3c[nH]c4c(P(C)(C)=O)c(C#N)ccc34)n2)CN1 (stereo unspecified) + COc1c(OCCCN2CCOCC2)ccc2c3n(c(=NC(=O)c4cnc(N)nc4)nc12)CCN3" data_value=7.14
compound="Cn1ncc(Cl)c1-c1cc(C(=O)NC(CN)Cc2cccc(F)c2)sc1Cl (stereo unspecified) + CC(Nc1ncnc2nc[nH]c12)c1cc2cccc(Cl)c2c(=O)n1-c1ccccc1" data_value=23.9
compound="CNC(=O)c1ccc(N2C(=S)N(c3ccc(C#N)c(C(F)(F)F)c3)C(=O)C2(C)C)cc1F + CC(Nc1ncnc2nc[nH]c12)c1cc2cccc(Cl)c2c(=O)n1-c1ccccc1" data_value=79.7
compound="C=CC(=O)N1CCN(c2nc(=O)n(-c3c(C)ccnc3C(C)C)c3nc(-c4c(O)cccc4F)c(F)cc23)C(C)C1 (stereo unspecified) + COc1c(OCCCN2CCOCC2)ccc2c3n(c(=NC(=O)c4cnc(N)nc4)nc12)CCN3" data_value=15.4
compound="CNC(=O)c1ccc(N2C(=S)N(c3ccc(C#N)c(C(F)(F)F)c3)C(=O)C2(C)C)cc1F + COc1c(OCCCN2CCOCC2)ccc2c3n(c(=NC(=O)c4cnc(N)nc4)nc12)CCN3" data_value=15.4
compound="CC1(C)CCC(CN2CCN(c3ccc(C(=O)NS(=O)(=O)c4ccc(NCC5CCOCC5)c([N+](=O)[O-])c4)c(Oc4cnc5[nH]ccc5c4)c3)CC2)=C(c2ccc(Cl)cc2)C1 + Cc1nc(NC(=O)N2CCCC2C(N)=O)sc1-c1ccnc(C(C)(C)C(F)(F)F)c1" data_value=90.8

Provide reported viability, T/C for each item, in the same order as listed.
1. Cn1nccc1Nc1nccc(-c2ccn(C(CO)c3ccc(Cl)c(F)c3)c(=O)c2)n1 (stereo unspecified) + CC(Nc1ncnc2nc[nH]c12)c1cc2cccc(Cl)c2c(=O)n1-c1ccccc1
2. CC(Cn1ccc(-c2ccc(C#N)c(Cl)c2)n1)NC(=O)c1cc(C(C)O)[nH]n1 (stereo unspecified) + CC(Nc1ncnc2nc[nH]c12)c1cc2cccc(Cl)c2c(=O)n1-c1ccccc1

25.8
115

Provide reported viability, T/C for each item, in the same order as listed.
1. C=CC(=O)N1CCN(c2nc(=O)n(-c3c(C)ccnc3C(C)C)c3nc(-c4c(O)cccc4F)c(F)cc23)C(C)C1 (stereo unspecified) + CC(Nc1ccc2c(c1)OCCn1cc(N3C(=O)OCC3C(F)F)nc1-2)C(N)=O
2. CC(C)NCC(C(=O)N1CCN(c2ncnc3c2C(C)CC3O)CC1)c1ccc(Cl)cc1 (stereo unspecified) + CC(Nc1ncnc2nc[nH]c12)c1cc2cccc(Cl)c2c(=O)n1-c1ccccc1
3. C#Cc1c(F)ccc2cc(O)cc(-c3ncc4c(N5CC6CCC(C5)N6)nc(OCC56CCCN5CC(F)C6)nc4c3F)c12 (stereo unspecified) + CC(Nc1ncnc2nc[nH]c12)c1cc2cccc(Cl)c2c(=O)n1-c1ccccc1
4. Cn1nccc1Nc1nccc(-c2ccn(C(CO)c3ccc(Cl)c(F)c3)c(=O)c2)n1 (stereo unspecified) + CC(Nc1ccc2c(c1)OCCn1cc(N3C(=O)OCC3C(F)F)nc1-2)C(N)=O
5. CC(C)NCC(C(=O)N1CCN(c2ncnc3c2C(C)CC3O)CC1)c1ccc(Cl)cc1 (stereo unspecified) + CC(Nc1ccc2c(c1)OCCn1cc(N3C(=O)OCC3C(F)F)nc1-2)C(N)=O
6. CC1(C)CCC(CN2CCN(c3ccc(C(=O)NS(=O)(=O)c4ccc(NCC5CCOCC5)c([N+](=O)[O-])c4)c(Oc4cnc5[nH]ccc5c4)c3)CC2)=C(c2ccc(Cl)cc2)C1 + COc1c(OCCCN2CCOCC2)ccc2c3n(c(=NC(=O)c4cnc(N)nc4)nc12)CCN3
7. C#Cc1c(F)ccc2cc(O)cc(-c3ncc4c(N5CC6CCC(C5)N6)nc(OCC56CCCN5CC(F)C6)nc4c3F)c12 (stereo unspecified) + Cc1nc(NC(=O)N2CCCC2C(N)=O)sc1-c1ccnc(C(C)(C)C(F)(F)F)c1
8. Cn1ncc(Cl)c1-c1cc(C(=O)NC(CN)Cc2cccc(F)c2)sc1Cl (stereo unspecified) + CC(Nc1ccc2c(c1)OCCn1cc(N3C(=O)OCC3C(F)F)nc1-2)C(N)=O

60.9
71.5
68.2
10.1
24.7
13.5
43.8
15.4

Taken from PubChem BioAssay AID1963976.
